Entry source: patent US8378092B2

Where a name gives a salt, the structure may show the parent alone.
Quick record of IC50 values for human thrombin (Homo sapiens).
measured.parameter: IC50 (nM)

Take a look at these entries with their results.
>  <molecule>
O=C(NC[C@H](NS(=O)(=O)c1cccc(N2CCCCC2=O)c1OC(F)F)C(=O)N1CCN(C2CC2)CC1)c1ccc(Cl)s1 [Example 8, trifluoroacetate]

>  <assayed.system>
human thrombin (Homo sapiens)

>  <reported.value>
10.4

$$$$
>  <molecule>
Cc1noc(C2CCN(C(=O)[C@H](CNC(=O)c3ccc(Cl)s3)NS(=O)(=O)c3cccc(N4CCCCC4=O)c3OC(F)F)CC2)n1 [Example 11]

>  <assayed.system>
human thrombin (Homo sapiens)

>  <reported.value>
381

$$$$

a = COc1c(N2CCOCC2=O)cc(F)cc1S(=O)(=O)N[C@@H](CNC(=O)c1ccc(Cl)s1)C(=O)N1CCCCCC1 [Example 6]
b = O=C(NC[C@H](NS(=O)(=O)c1cccc(N2CCCCC2=O)c1C(F)(F)F)C(=O)N1CCN(C2CC2)CC1)c1ccc(Cl)s1 [Example 7, trifluoroacetate]
Exercise: Pick the one with the larger IC50: a vs b Refer to your chosen item by its label in the answer.
Key: b
(b: 222 nM, a: 5.64 nM)

P = O=C(NC[C@H](NS(=O)(=O)c1cc(F)cc(N2CCCCC2=O)c1Cl)C(=O)N1CCN(CC(F)(F)F)CC1)c1ccc(Cl)s1 [Example 183]
Q = Cc1c(N2CCCC2=O)cccc1S(=O)(=O)N[C@@H](CNC(=O)c1ccc(Cl)s1)C(=O)N1CCc2sccc2C1 [Example 154]
Exercise: Returns the identifier with the smallest measured IC50 among P and Q . Please respond with the label that marks your chosen entry.
Key: Q
(Q: 3.48 nM, P: 40 nM)

---

pIC50: −log10 of the molar value. Structures can show the parent of a compound that is named as a salt.
The reader will find pIC50 measurements below, all made with human coagulation factor Xa (Homo sapiens, UniProt P00742).
Sequence (P00742 235-488 limits assumed): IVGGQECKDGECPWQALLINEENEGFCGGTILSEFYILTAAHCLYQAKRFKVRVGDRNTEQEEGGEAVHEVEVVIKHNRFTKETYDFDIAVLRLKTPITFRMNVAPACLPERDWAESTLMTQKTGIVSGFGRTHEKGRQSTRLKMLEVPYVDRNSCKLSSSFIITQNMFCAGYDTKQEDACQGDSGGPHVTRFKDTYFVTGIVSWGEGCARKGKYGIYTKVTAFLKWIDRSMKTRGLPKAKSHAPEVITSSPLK
Sequence (P00742 41-179 partner limits assumed): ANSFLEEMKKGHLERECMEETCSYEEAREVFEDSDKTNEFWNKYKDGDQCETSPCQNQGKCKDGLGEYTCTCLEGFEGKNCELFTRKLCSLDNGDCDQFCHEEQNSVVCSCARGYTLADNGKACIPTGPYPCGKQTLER
measured.parameter: pIC50

Solved entries (count: 2):
>  <compound>
O=C(NC[C@H](NS(=O)(=O)c1cccc(N2CCCC2=O)c1Cl)C(=O)N1CCNCC1)c1ccc(Cl)s1

>  <assayed.system>
human coagulation factor Xa (Homo sapiens, UniProt P00742)

>  <pIC50>
8.88

$$$$
>  <compound>
O=C(NC[C@H](NS(=O)(=O)c1cccc(N2CCCCC2=O)c1OC(F)F)C(=O)N1CCN(C2CC2)CC1)c1ccc(Cl)s1 [Example 8, trifluoroacetate]

>  <assayed.system>
human coagulation factor Xa (Homo sapiens, UniProt P00742)

>  <pIC50>
9.01

$$$$

A = O=C(NC[C@H](NS(=O)(=O)c1cc(F)cc(N2CCCCC2=O)c1Cl)C(=O)N1CCN(CC(F)(F)F)CC1)c1ccc(Cl)s1
B = O=C(NC[C@H](NS(=O)(=O)c1cccc(N2CCCCC2=O)c1C(F)(F)F)C(=O)N1CCN(C2CC2)CC1)c1ccc(Cl)s1 [Example 7, trifluoroacetate]
Exercise: // pick min by pIC50: A , B Bench note: the answer is the label of the chosen record.
Key: B
(B: 8.99, A: 9.40)

---

human coagulation factor Xa (Homo sapiens) measurements of IC50, listed per entry.
measured.parameter: IC50 (nM)

>  <smiles.notation>
Cc1c(N2CCCC2=O)cc(F)cc1S(=O)(=O)N[C@@H](CNC(=O)c1ccc(Cl)s1)C(=O)N1CCN(C)CC1

>  <assayed.system>
human coagulation factor Xa (Homo sapiens)

>  <measured.parameter>
IC50

>  <units.text>
nM

>  <reported.value>
1.31

$$$$
>  <smiles.notation>
CN1CCN(C(=O)[C@H](CNC(=O)c2ccc(Cl)s2)NS(=O)(=O)c2cc(F)cc(N3CCCC3)c2Cl)CC1

>  <assayed.system>
human coagulation factor Xa (Homo sapiens)

>  <measured.parameter>
IC50

>  <units.text>
nM

>  <reported.value>
1.44

$$$$
>  <smiles.notation>
Cc1noc(C2CCN(C(=O)[C@H](CNC(=O)c3ccc(Cl)s3)NS(=O)(=O)c3cccc(N4CCCCC4=O)c3OC(F)F)CC2)n1

>  <assayed.system>
human coagulation factor Xa (Homo sapiens)

>  <measured.parameter>
IC50

>  <units.text>
nM

>  <reported.value>
1.74

$$$$
>  <smiles.notation>
CCc1c(N2CCOCC2=O)cccc1S(=O)(=O)N[C@@H](CNC(=O)c1ccc(Cl)s1)C(=O)N1CCO[C@H](C)C1

>  <assayed.system>
human coagulation factor Xa (Homo sapiens)

>  <measured.parameter>
IC50

>  <units.text>
nM

>  <reported.value>
1.48

$$$$
